# recordedConditions: buffer; pH 7.4; 200.0 µM
endpointName: solubility kinetic

Example cases with answers are listed next.
O=C(Nc1ccccc1C(=O)NCCCN1CCOCC1)c1ccccc1 ... > 55.1 µg/mL
Nc1cccc2c1C(=O)N(Cc1cccc(Cl)c1)C2=O ... < 0.3 µg/mL
Cc1noc(C)c1C(=O)Nc1cccc2ncccc12 ... > 40.1 µg/mL
CC1(C)C(=S)N(Cc2ccccc2)c2ccccc21 ... < 0.6 µg/mL

Look at this compound and give its reported solubility kinetic. O=C(O)CCN1c2cccc3cccc(c23)S1(=O)=O > 41.6 µg/mL

----------
# recordedConditions: buffer; pH 7.4; 200.0 µM
Listed here are compounds together with their documented solubility kinetic.

May I ask what solubility kinetic has been recorded for O=C(NCCNC(=O)c1ccccc1)c1ccccc1 ? > 40.2 µg/mL

Field request: solubility kinetic | item: Cc1ccc(/C(=C\CN2CCCC2)c2ccccn2)cc1.Cl > 47.2 µg/mL

----------
# solubility kinetic per entry
# recordedConditions: buffer; pH 7.4; 200.0 µM

Please review the entries below; each comes with its answer.
C=CCn1c(SCC(=O)Nc2cc(C)on2)nnc1-c1ccccc1OC ... > 0.0578 mg/mL
CCCCn1c(N)c(N(CC)C(=O)c2cccc(C)c2)c(=O)[nH]c1=O ... > 0.0517 mg/mL
Cc1ccc(-c2csc3ncn(CC(=O)O)c(=O)c23)cc1C ... > 0.0472 mg/mL
CCC(NC(=O)c1ccccc1NC(=O)C(C)(C)C)C(=O)N1CC(C)OC(C)C1 (centres undefined) ... > 0.0605 mg/mL
Cc1nccn1CC(=O)N/N=C/c1ccccc1O ... > 0.0387 mg/mL

Fill in: solubility kinetic of N#CC1(NC(=O)CN2C(=O)NC(Cc3c[nH]c4ccccc34)C2=O)CCCCC1 (centres undefined) is ___ > 0.059 mg/mL

I have this compound here, CN(CC(=O)Nc1ccc(F)c(F)c1F)C(=O)C1COc2ccccc2O1 (centres undefined) , and I need its recorded solubility kinetic. > 0.057 mg/mL

Looking for the measured solubility kinetic of CCC(CC)C(=O)c1c[nH]c(C(=O)NCCOC)c1 , can you help? > 0.04 mg/mL

Item CC(=O)OC(C)C[N+](C)(C)C.[Cl-] (centres undefined) has what recorded solubility kinetic? > 0.0294 mg/mL

----------
# recordedConditions: buffer; pH 7.4; 200.0 µM
endpointName: solubility kinetic

CN(C)C(=O)CSc1ccc(S(=O)(=O)N2CCCC2)cn1 ... > 49.4 µg/mL
COc1ccccc1OCCNC(=O)CN1C(=O)NC2(CCCCC2)C1=O ... > 56.3 µg/mL
O=C(O)COc1ccc(NC(=O)C(c2ccccc2)c2ccccc2)cc1 ... > 54.2 µg/mL
Cc1cc(OC(F)F)ccc1NC(=S)NC1CCCC1 ... > 45.1 µg/mL

Data request, read-out solubility kinetic, for Cc1ccsc1C1C(C#N)=C(N)OC2=C1C(=O)CC(C)(C)C2 (stereo not given) > 47.2 µg/mL

----------
# recordedConditions: buffer; pH 7.4; 200.0 µM
endpointName: solubility kinetic

Cc1ccc(C(=O)NC(C)c2ccc(-n3ccnc3)cc2)cc1 (centres undefined) ... > 45.8 µg/mL

Look at this compound and give its reported solubility kinetic. Nc1c(C(=O)O)cnn1-c1ccc([N+](=O)[O-])cc1 > 37.2 µg/mL

GET /values?readout=solubility kinetic&item= CC1CN(S(=O)(=O)c2ccc(C(=O)Nc3ccccc3F)cc2)CC(C)O1 (centres undefined) > 58.9 µg/mL

Entry CCOc1ccc(C2C(C#N)=C(N)Oc3nc[nH]c(=O)c32)cc1 (centres undefined) : reported solubility kinetic = ? > 46.5 µg/mL
